Tested on: LOVO cells
Assay: LOVO CTG proliferation assay (120 h) (CRC, G13D)
Assay type: cell-based
Conditions: Homo sapiens
propertyMeasured: pIC50
pIC50 is a log-scale quantity: -log10 of the concentration expressed in molar.

Please review the entries below; each comes with its answer.
C[C@H](Oc1cc(OCCO)nc(-c2noc3c2CCC[C@@]32CCCc3sc(N)c(C#N)c32)n1)[C@@H]1CCCN1C
6.11
CO[C@@H]1C[C@@H]([C@H](C)Oc2cc(O[C@@H]3CNC3(C)C)nc(-c3noc4c3CCC[C@@]43CCCc4sc(N)c(C#N)c43)n2)N(C)C1
6.89
C[C@H](Oc1cc(O[C@@H]2CNC[C@@H]2F)nc(-c2noc3c2CCC[C@@]32CCCc3sc(N)c(C#N)c32)n1)[C@@H]1CCCN1C
6.67

Would you kindly share the measured pIC50 for "C[C@H](Oc1cc(Oc2cccnc2)nc(-c2onc3c2CCC[C@@]32CCCc3sc(N)c(C#N)c32)n1)[C@@H]1CCCN1C" ?
7.49

Looking for the measured pIC50 of "C[C@H](Oc1cc(Nc2cnccn2)nc(-c2noc3c2CCC[C@@]32CCCc3sc(N)c(C#N)c32)n1)[C@@H]1CCCN1C" , can you help?
6.02

Reported pIC50, compound "C[C@H](Oc1cc(Nc2ccccn2)nc(-c2onc3c2CCC[C@@]32CCCc3sc(N)c(C#N)c32)n1)[C@@H]1CCCN1C" : ____
6.23

Suppose we examine the compound "C[C@H](Oc1cc(O[C@@H]2CNC2(C)C)nc(-c2noc3c2CCC[C@@]32CCCc3sc(N)c(C#N)c32)n1)[C@@H]1C[C@@H](F)CN1C" ; what pIC50 value has been reported?
6.69

meta.source: patent US20250129095A1
